PROTOCOL_SUMMARY: self-splicing fitness, log relative to wild type (ln ratio); higher = more splicing; Tetrahymena group I intron in knt gene, E. coli kanamycin selection, DiMSum; sequences stand for … in CUCUCU…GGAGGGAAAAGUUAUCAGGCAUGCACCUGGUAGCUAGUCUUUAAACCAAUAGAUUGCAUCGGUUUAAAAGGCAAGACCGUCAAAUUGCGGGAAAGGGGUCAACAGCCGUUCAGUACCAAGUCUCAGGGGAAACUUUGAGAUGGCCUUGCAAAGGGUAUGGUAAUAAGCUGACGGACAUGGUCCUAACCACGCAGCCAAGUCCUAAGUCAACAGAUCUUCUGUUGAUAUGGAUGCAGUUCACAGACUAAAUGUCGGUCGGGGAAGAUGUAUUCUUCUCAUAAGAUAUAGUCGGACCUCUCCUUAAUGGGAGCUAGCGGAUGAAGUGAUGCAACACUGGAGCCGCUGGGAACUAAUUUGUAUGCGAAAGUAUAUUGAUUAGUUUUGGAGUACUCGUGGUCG;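 further: selection with 25 µg/mL kanamycin versus none on LB agar overnight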
TEST_SETTINGS: 30 °C
ATTRIBUTE_MEASURED: self-splicing fitness (ln)
Returns: the value as a bare number; no unit string appended.

Item CUACAGCAAUAUUACGUUAC has what recorded self-splicing fitness (ln)?
-4.4

Item UGCCAGCAAUAUUACGAGGC has what recorded self-splicing fitness (ln)?
-4.02

Item ACGAAGCAAUAUUACGCGGC has what recorded self-splicing fitness (ln)?
-2.63

Item CUUCAGCAAUAUUACGCGUA has what recorded self-splicing fitness (ln)?
-2.92

Item CCACAGCAAUAUUACGCGGA has what recorded self-splicing fitness (ln)?
-3.84

Item CUACAGCAAUAUUACGUUUG has what recorded self-splicing fitness (ln)?
-0.766

Item UAUAAGCAAUAUUACGUACA has what recorded self-splicing fitness (ln)?
-0.793

Item GGCGAGCAAUAUUACGUGGC has what recorded self-splicing fitness (ln)?
-3.3

Item UUGUAGCAAUAUUACGAACA has what recorded self-splicing fitness (ln)?
-0.432

Item GGGAAGCAAUAUUACGACUA has what recorded self-splicing fitness (ln)?
-0.9

Item CGGGAGCAAUAUUACGUGGU has what recorded self-splicing fitness (ln)?
-3.52

Item UGCGAGCAAUAUUACGGCGC has what recorded self-splicing fitness (ln)?
-2.34

Item CAUCAGCAAUAUUACGCCGG has what recorded self-splicing fitness (ln)?
-0.415

Item GCCCAGCAAUAUUACGAAAG has what recorded self-splicing fitness (ln)?
-2.48

Item GUACAGCAAUAUUACGCCUG has what recorded self-splicing fitness (ln)?
-2.24

Item AUUUAGCAAUAUUACGGACG has what recorded self-splicing fitness (ln)?
-2.26

Item AUUAAGCAAUAUUACGAUCC has what recorded self-splicing fitness (ln)?
-0.418

Item GUUGAGCAAUAUUACGAACA has what recorded self-splicing fitness (ln)?
-2.67

Item AUGCAGCAAUAUUACGGAAG has what recorded self-splicing fitness (ln)?
-3.07

Item GGAUAGCAAUAUUACGUGAG has what recorded self-splicing fitness (ln)?
-1.33

Item AGCGAGCAAUAUUACGGCCG has what recorded self-splicing fitness (ln)?
-2.6

Item UGUCAGCAAUAUUACGUUCC has what recorded self-splicing fitness (ln)?
-1.82

Item CCCCAGCAAUAUUACGAGCA has what recorded self-splicing fitness (ln)?
-1.5

Item GCGUAGCAAUAUUACGAUUU has what recorded self-splicing fitness (ln)?
0.253

Item ACCGAGCAAUAUUACGGGCU has what recorded self-splicing fitness (ln)?
-3.3

Item AGGAAGCAAUAUUACGGUGG has what recorded self-splicing fitness (ln)?
-3.94

Item CUGUAGCAAUAUUACGGACG has what recorded self-splicing fitness (ln)?
-1.53

Item GGCCAGCAAUAUUACGUCGC has what recorded self-splicing fitness (ln)?
-1.17

Item AGAGAGCAAUAUUACGAUUA has what recorded self-splicing fitness (ln)?
-2.43

Item UUUUAGCAAUAUUACGCAAA has what recorded self-splicing fitness (ln)?
-1.98

Item AGCUAGCAAUAUUACGACGC has what recorded self-splicing fitness (ln)?
-1.63

Item GCAAAGCAAUAUUACGAGUC has what recorded self-splicing fitness (ln)?
-1.41

Item CCGCAGCAAUAUUACGUGGG has what recorded self-splicing fitness (ln)?
-3.41
